Data provenance: patent US20110053933A1

- System: γ-glutamyl carboxylation reaction (human Gas6 in Gas6-HEK293 cells)
- Assay Procedure: Inhibitory action on γ-glutamyl carboxylation reaction (secreted γ-glutamyl carboxylated Gas6 by ELISA)
- Assay type: cell-based
- Run Conditions: vitamin K2 100 nM, exposure 18 to 20 hours, ELISA absorbance at 620 nm, read-out: IC50 (50% inhibitory concentration for the γ-glutamyl carboxylation reaction)
- Procedure: Measurement of Inhibitory Action on γ-Glutamyl Carboxylation Reaction Cells were used that expressed Gas6 excreted outside the cells when subjected to γ-glutamyl carboxylation, and inhibitory action on γ-glutamyl carboxylation reaction was assessed by measuring the secreted amount of extracellular Gas6 by ELISA method. […] (C) Quantification of γ-Glutamyl Carboxylated Gas6 by ELISA and Calculation of 50% Inhibitory Concentrations of γ-Glutamyl Carboxylation Reaction […]
Quantity Measured: IC50 (nM)

> print(dat)
                        structure.as.smiles  measure.unit  cmp  assay.value
1  CC(C)[C@H](NC(=O)c1nc2ccccc2nc1O)C(=O)N1CCC(Oc2ccc(F)cn2)CC1            nM    =          5.4
2  CC(C)[C@H](NC(=O)c1nc2ccccc2nc1O)C(=O)N1CCC(Oc2ncc(N3CCCCC3)cn2)CC1            nM    =          9.6
3  CC[C@H](NC(=O)c1nc2ccccc2nc1O)C(=O)N1CCC(Oc2ccc(F)cc2F)CC1            nM    <          0.6
4  C[C@H](NC(=O)c1nc2ccccc2nc1O)C(=O)N1CCC(Oc2ccc(F)cc2F)CC1            nM    =          3.5

----------
- System: γ-glutamyl carboxylation reaction (human Gas6 in Gas6-HEK293 cells)
- Assay Procedure: Inhibitory action on γ-glutamyl carboxylation reaction (secreted γ-glutamyl carboxylated Gas6 by ELISA)
- Type: cell-based
- Run Conditions: vitamin K2 100 nM, exposure 18 to 20 hours, ELISA absorbance at 620 nm, read-out: IC50 (50% inhibitory concentration for the γ-glutamyl carboxylation reaction)
pIC50: −log10 of the molar value.
Quantity Measured: pIC50

> print(dat)
                                   compound                             tested.system  cmp  assay.value
1  O=C(N[C@H](C(=O)N1CCC(Oc2ccc(F)cn2)CC1)C1CC1)c1nc2ccccc2nc1O [Example 14]  γ-glutamyl carboxylation reaction (human Gas6 in Gas6-HEK293 cells)    =         7.60
2  CC(C)[C@H](NC(=O)c1nc2ccccc2nc1O)C(=O)N1CCC(Nc2ccc(F)cn2)CC1 [Example 34]  γ-glutamyl carboxylation reaction (human Gas6 in Gas6-HEK293 cells)    =         7.92
3  CC(C)[C@H](NC(=O)c1nc2ccc(F)cc2nc1O)C(=O)N1CCC(Oc2ccc(F)cc2)CC1 [Example 74]  γ-glutamyl carboxylation reaction (human Gas6 in Gas6-HEK293 cells)    =         8.26
4  CC(C)[C@H](NC(=O)c1nc2ccccc2nc1O)C(=O)N1CCC(N(C)c2ccc(F)cn2)CC1 [Example 35]  γ-glutamyl carboxylation reaction (human Gas6 in Gas6-HEK293 cells)    >         9.22
5  CC(C)[C@H](NC(=O)c1nc2ccccc2nc1O)C(=O)N1CCC(Oc2ncc(Br)cn2)CC1 [Example 65]  γ-glutamyl carboxylation reaction (human Gas6 in Gas6-HEK293 cells)    =         7.70
6  CC(C)[C@H](NC(=O)c1nc2ccccc2nc1O)C(=O)N1CCC(C(O)c2ccc(F)cc2F)CC1 (stereo partly shown) [Example 99]  γ-glutamyl carboxylation reaction (human Gas6 in Gas6-HEK293 cells)    =         8.31
7  CC(C)[C@H](NC(=O)c1nc2ccccc2nc1O)C(=O)N1CCC(Oc2ccc(C(F)(F)F)nc2)CC1 [Example 84]  γ-glutamyl carboxylation reaction (human Gas6 in Gas6-HEK293 cells)    =         8.26

----------
molecules and their reported IC50
- System: γ-glutamyl carboxylation reaction (human Gas6 in Gas6-HEK293 cells)
- Assay Procedure: Inhibitory action on γ-glutamyl carboxylation reaction (secreted γ-glutamyl carboxylated Gas6 by ELISA)
- Format: cell-based
- Run Conditions: vitamin K2 100 nM, exposure 18 to 20 hours, ELISA absorbance at 620 nm, read-out: IC50 (50% inhibitory concentration for the γ-glutamyl carboxylation reaction)
Quantity Measured: IC50 (nM)

> print(dat)
                                    molecule  quantity.measured  cmp  assay.value
 1  COc1ccc(OC2CCN(C(=O)[C@@H](NC(=O)c3nc4ccccc4nc3O)C(C)C)CC2)cn1 [Example 86]               IC50    =          0.7
 2  CC(C)[C@H](NC(=O)c1nc2ccccc2nc1O)C(=O)N1CCC(Oc2ccc(F)cc2F)CC1 [Example 23]               IC50    <          0.6
 3  CC(C)[C@H](NC(=O)c1nc2ccccc2nc1O)C(=O)N1CCC(Oc2ccc(C(F)(F)F)cn2)CC1 [Example 36]               IC50    =          1.8
 4  CC(C)[C@H](NC(=O)c1nc2ccccc2nc1O)C(=O)N1CCC(Oc2ccc(F)cc2Br)CC1 [Example 21]               IC50    =         0.89
 5  CC[C@H](NC(=O)c1nc2ccccc2nc1O)C(=O)N1CCC(Oc2ccc(OC(F)(F)F)cc2)CC1 [Example 10]               IC50    <          0.6
 6  O=C(N[C@H](C(=O)N1CCC(Oc2ccc(F)cc2)CC1)C1CC1)c1nc2ccccc2nc1O [Example 13]               IC50    =          5.8
 7  CC(C)[C@H](NC(=O)c1nc2ccccc2nc1O)C(=O)N1CCC(Sc2ccc(F)cc2)CC1 [Example 45]               IC50    =          1.3
 8  CC(C)[C@H](NC(=O)c1nc2ccccc2nc1O)C(=O)N1CCC(Oc2cnc(-c3ccccc3)nc2)CC1 [Example 81]               IC50    =          4.6
 9  CC[C@H](NC(=O)c1nc2ccccc2nc1O)C(=O)N1CCC(Oc2ccc(F)cn2)CC1 [Example 12]               IC50    =          4.2
10  CC(C)[C@H](NC(=O)c1nc2ccccc2nc1O)C(=O)N1CCC(Oc2ncc(-c3ccccc3)cn2)CC1 [Example 80]               IC50    =          7.1
11  CC(C)[C@H](NC(=O)c1nc2ccccc2nc1O)C(=O)N1CCC(Oc2ccc(Cl)cc2)CC1 [Example 15]               IC50    =           18
12  CC(C)[C@H](NC(=O)c1nc2ccccc2nc1O)C(=O)N1CCC(Oc2ncc(C(F)(F)F)cn2)CC1 [Example 94]               IC50    =          2.7
13  CC(C)[C@H](NC(=O)c1nc2ccccc2nc1O)C(=O)N1CCC(Oc2ccc(OC(F)(F)F)cc2)CC1 [Example 18]               IC50    =          2.9
14  CC[C@H](NC(=O)c1nc2ccccc2nc1O)C(=O)N1CCC(Oc2ccc(C#N)cc2)CC1 [Example 11]               IC50    =          6.5
15  CC(C)[C@H](NC(=O)c1nc2ccccc2nc1O)C(=O)N1CCC(Oc2ccc(C(F)(F)F)cc2)CC1 [Example 62]               IC50    =          3.6

----------
- Test system: γ-glutamyl carboxylation reaction (human Gas6 in Gas6-HEK293 cells)
- Assay Procedure: Inhibitory action on γ-glutamyl carboxylation reaction (secreted γ-glutamyl carboxylated Gas6 by ELISA)
- Type: cell-based
- Run Conditions: vitamin K2 100 nM, exposure 18 to 20 hours, ELISA absorbance at 620 nm, read-out: IC50 (50% inhibitory concentration for the γ-glutamyl carboxylation reaction)
- Method: Measurement of Inhibitory Action on γ-Glutamyl Carboxylation Reaction Cells were used that expressed Gas6 excreted outside the cells when subjected to γ-glutamyl carboxylation, and inhibitory action on γ-glutamyl carboxylation reaction was assessed by measuring the secreted amount of extracellular Gas6 by ELISA method. […] (C) Quantification of γ-Glutamyl Carboxylated Gas6 by ELISA and Calculation of 50% Inhibitory Concentrations of γ-Glutamyl Carboxylation Reaction […]
pIC50: −log10 of the molar value.
compounds and their reported pIC50
Quantity Measured: pIC50

> print(dat)
                                    compound  assay.value
 1  C[C@H](NC(=O)c1nc2ccccc2nc1O)C(=O)N1CCC(Oc2ccc(F)cn2)CC1         7.13
 2  CC(C)[C@H](NC(=O)c1nc2ccccc2nc1O)C(=O)N1CCC(Oc2ccc(C#N)cc2)CC1         8.33
 3  CC[C@H](NC(=O)c1nc2ccccc2nc1O)C(=O)N1CCC(Oc2ccc(F)cc2)CC1         8.74
 4  CC(C)[C@H](NC(=O)c1nc2ccccc2nc1O)C(=O)N1CCC(N(C)c2ccc(F)cc2)CC1         8.77
 5  CC(C)[C@H](NC(=O)c1nc2ccccc2nc1O)C(=O)N1CCC(Oc2ccc(Cl)cn2)CC1         8.14
 6  C[C@H](NC(=O)c1nc2ccccc2nc1O)C(=O)N1CCC(Oc2ccc(OC(F)(F)F)cc2)CC1         8.33
 7  CC(C)[C@H](NC(=O)c1nc2ccccc2nc1O)C(=O)N1CCC(Oc2ncc(F)cc2F)CC1         8.37
 8  CC(C)[C@H](NC(=O)c1nc2ccccc2nc1O)C(=O)N1CCC(Oc2ccc(C(F)(F)F)nn2)CC1         7.98
 9  C[C@H](NC(=O)c1nc2ccccc2nc1O)C(=O)N1CCC(Oc2ccc(Cl)cc2)CC1         8.08
10  CC(C)[C@H](NC(=O)c1nc2ccccc2nc1O)C(=O)N1CCC(Oc2cnc(N3CCCCC3)nc2)CC1         8.35
11  Cc1nc2ccc(OC3CCN(C(=O)[C@@H](NC(=O)c4nc5ccccc5nc4O)C(C)C)CC3)cc2s1         8.42
12  CC(C)[C@H](NC(=O)c1nc2ccccc2nc1O)C(=O)N1CCC(Oc2ccc(F)cc2)CC1         8.15
13  CC(C)[C@H](NC(=O)c1nc2ccccc2nc1O)C(=O)N1CCC(Oc2ncc(Br)cn2)C(C)(C)C1 (stereo partly drawn)         8.34
14  CC(C)[C@H](NC(=O)c1nc2ccccc2nc1O)C(=O)N1CCC(C(=O)c2ccc(F)cc2O)CC1         9.12
15  CC(C)(O)[C@H](NC(=O)c1nc2ccccc2nc1O)C(=O)N1CCC(Oc2ccc(F)cc2)CC1         8.47
